- assayed.target: human FPRL2 (Homo sapiens)
- Sequence (P25089 whole entry): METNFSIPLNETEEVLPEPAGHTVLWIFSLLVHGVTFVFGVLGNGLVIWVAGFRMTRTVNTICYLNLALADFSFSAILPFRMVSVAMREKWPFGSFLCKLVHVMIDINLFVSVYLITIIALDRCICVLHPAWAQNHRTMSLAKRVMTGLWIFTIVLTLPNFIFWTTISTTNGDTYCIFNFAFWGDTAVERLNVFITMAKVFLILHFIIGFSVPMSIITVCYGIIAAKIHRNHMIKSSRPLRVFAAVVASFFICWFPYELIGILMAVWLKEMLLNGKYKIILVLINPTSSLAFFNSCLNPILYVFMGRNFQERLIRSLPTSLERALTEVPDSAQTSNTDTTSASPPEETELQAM
- experiment.summary: Intracellular calcium measurements (FLIPR), agonistic activity in HEK293-hFPRL2-Gα16 cells
- condition.context: Fluo-4 calcium FLIPR, normalized to GLY14-Humanin 100 nM
pEC50: −log10 of the molar value.
Label rule, in plain words: pEC50 of 6 and up is Fulfilled, under 6 is Not fulfilled.

Given Cc1[nH]ncc1CCCNC(=O)[C@H]1[C@H](C(=O)Nc2ccc(Br)cc2)[C@@H]2C=C[C@H]1C21CC1 (racemic) , state whether its pEC50 is at least 6.
Not fulfilled

Item O=C(NCCN1CCNC1=O)[C@H]1[C@H](C(=O)Nc2ccc(Br)cc2)[C@@H]2CC[C@H]1C21CC1 (racemic) with pEC50 of 6 or above?
Not fulfilled

# check: pEC50 of NC(=O)CCNC(=O)[C@H]1[C@H](C(=O)NCc2ccc(Br)cc2)[C@@H]2CC[C@H]1C21CC1 is greater than or equal to 6
Not fulfilled

Is the recorded value of pEC50 equal to or greater than 6 for this compound? O=C(NCCCCN1CCCC1)[C@H]1[C@H](C(=O)NCc2c(F)cc(Br)cc2F)[C@@H]2C=C[C@H]1C21CC1
Fulfilled

Dear colleague, could you confirm whether CC(C)C(=O)NC[C@H]1[C@H](C(=O)Nc2ccc(Br)cc2)[C@@H]2C=C[C@H]1C21CC1 (racemic) has pEC50 at or above 6?
Not fulfilled

Hi team, for CC(NC(=O)C1C(C(=O)Nc2ccc(Br)cc2)C2C=CC1C21CC1)C(=O)N1CCCCC1 (mixture of isomers) , is the recorded pEC50 at or above 6?
Not fulfilled

Reported pEC50 at or above 6? O=C(N[C@H]1CC[C@H](O)CC1)[C@H]1[C@H](C(=O)Nc2ncc(Br)s2)[C@@H]2CC[C@H]1C21CC1
Not fulfilled

In plain terms: is recorded pEC50 at least 6 for O=C(NCCCCN1CCCC1)[C@H]1[C@H](C(=O)NCCC2=CCCCC2)[C@@H]2C=C[C@H]1C21CC1 (racemic) ?
Fulfilled

API: above_or_equal(metric=pEC50, cutoff=6) for item O=C(NCCCCN1CCCC1)[C@H]1[C@H](C(=O)NCc2cc(C(F)(F)F)ccc2Cl)[C@@H]2C=C[C@H]1C21CC1 (racemic)
Fulfilled

Textbook exercise: given the entry CCCC(=O)NC[C@H]1[C@H](C(=O)Nc2ccc(Br)cc2)[C@@H]2C=C[C@H]1C21CC1 (racemic) , state whether its pEC50 is greater than or equal to 6.
Not fulfilled

Check this compound for pEC50 at or above 6: NC(=O)CCNC(=O)[C@H]1[C@H](C(=O)NCc2ccc(Br)cc2F)[C@@H]2C=C[C@H]1C21CC1
Not fulfilled

Could you verify whether the entry NCC1CCN(C(=O)[C@H]2[C@H](C(=O)Nc3ncc(Br)s3)[C@@H]3C=C[C@H]2C32CC2)CC1 shows pEC50 of no less than 6?
Not fulfilled

Decide: pEC50 of O=C(NC1CCNCC1)[C@H]1[C@H](C(=O)Nc2ncc(Br)s2)[C@@H]2CC[C@H]1C21CC1 >= 6?
Not fulfilled

# check: pEC50 of NC(=O)CNC(=O)[C@H]1[C@H](C(=O)Nc2ccc(Br)cc2)[C@@H]2C=C[C@H]1C21CC1 (racemic) is greater than or equal to 6
Not fulfilled

Answer whether pEC50 of O=C(NCCCCN1CCCC1)[C@H]1[C@H](C(=O)Nc2nc3ccc(Cl)cc3s2)[C@@H]2C=C[C@H]1C21CC1 (racemic) is greater than or equal to 6.
Fulfilled

Exam item: decide whether the reported pEC50 for CC(CO)NC(=O)C1C(C(=O)Nc2ccc(Br)cc2)C2C=CC1C21CC1 (mixture of isomers) is at least 6.
Not fulfilled

Quick check, pEC50 >= 6? Cc1nsc2ccc(NC(=O)[C@H]3[C@H](C(=O)NCCCCN4CCCC4)[C@H]4C=C[C@@H]3C43CC3)cc12 (racemic)
Fulfilled

Can O=C(NCCCCN1CC[C@H](F)C1)[C@H]1[C@H](C(=O)Nc2ccc(Br)cc2)[C@@H]2C=C[C@H]1C21CC1 be said to have pEC50 at or above 6?
Fulfilled

# bool: pEC50 of O=C(NCCCCN1CCCC1)[C@H]1[C@H](C(=O)Nc2ncc(Br)s2)[C@@H]2C=C[C@H]1C21CC1 (racemic) >= 6
Fulfilled

For this compound, is measured pEC50 6 or higher? O=C(NCCCCN1CCCC1)[C@H]1[C@H](C(=O)Nc2ccc(Br)cc2)[C@@H]2C=C[C@H]1C21CC1
Fulfilled

Does CC(=O)c1ccc(NC(=O)[C@H]2[C@H](C(=O)NCCCCN3CCCC3)[C@H]3C=C[C@@H]2C32CC2)cc1 (racemic) have a reported pEC50 of at least 6?
Fulfilled
